Where do the numbers come from? From paper PMC10490123.

QUANTITY_MEASURED: melting point

# MOLECULE, QUANTITY_MEASURED, EXPERIMENTAL_RESULT
data = [
    ("COc1ccc(-c2nn(-c3ccccc3)c3nc(-c4ccccc4)c(C#N)c(-c4ccccc4)c23)cc1 [Compound 14a]", "melting point", "229 to 231 °C"),
    ("COc1ccc(-c2nn(-c3ccccc3)c3nc(-c4ccccc4)c(C#N)c(-c4ccc(OC)cc4)c23)cc1 [Compound 14c]", "melting point", "207 to 209 °C"),
    ("COc1ccc(-c2nn(-c3ccccc3)c3nc(-c4ccccc4)c(C#N)c(-c4ccc(C)cc4)c23)cc1 [Compound 14b]", "melting point", "203 to 205 °C"),
]

The recorded melting point for entry "COc1ccc(-c2nn(-c3ccccc3)c3nccc(-c4ccc(Br)cc4)c23)cc1" equals 217 to 219 °C

The recorded melting point for entry "COc1ccc(-c2nn(-c3ccccc3)c3nccc(-c4ccc(Cl)cc4)c23)cc1" equals 210 to 212 °C

The recorded melting point for entry "COc1ccc(-c2nn(-c3ccccc3)c3nccc(-c4ccc(OC)c(OC)c4)c23)cc1" equals 165 to 167 °C

The recorded melting point for entry COc1ccc(-c2nn(-c3ccccc3)c3nc(-c4ccccc4)c(C#N)c(-c4ccc(Cl)cc4)c23)cc1 [Compound 14d] equals 258 to 260 °C

The recorded melting point for entry COc1ccc(-c2nn(-c3ccccc3)c3nc(-c4ccccc4)c(C#N)c(-c4ccc(O)cc4)c23)cc1 [Compound 14g] equals 295 to 297 °C

* * *

# System: MCF7 cancer cell line
# METHOD_DESCRIPTION: MTT cytotoxicity assay, breast cancer MCF7
# Type: cell-based
# DETAILS: Homo sapiens, mean ± SD of three experiments
Recorded pIC50 values for a group of compounds are listed next.
The quantity pIC50 is defined as the negative base-10 logarithm of the molar concentration.

# COMPOUND, EXPERIMENTAL_RESULT
measured = [
    ("COc1ccc(-c2nn(-c3ccccc3)c3nc(-c4ccccc4)c(C#N)c(-c4ccc(OC)cc4)c23)cc1 [Compound 14c]", 4.41),
]

The recorded pIC50 for entry COc1ccc(-c2nn(-c3ccccc3)c3nccc(-c4ccc(Cl)cc4)c23)cc1 [Compound 9e] equals 4.69

The recorded pIC50 for entry COc1ccc(-c2nn(-c3ccccc3)c3nc(-c4ccccc4)c(C#N)c(-c4ccc(Br)cc4)c23)cc1 [Compound 14e] equals 4.46

The recorded pIC50 for entry COc1ccc(-c2nn(-c3ccccc3)c3nc(-c4ccccc4)c(C#N)c(-c4ccc(C)cc4)c23)cc1 [Compound 14b] equals 4.67

The recorded pIC50 for entry COc1ccc(-c2ccnc3c2c(-c2ccc(OC)cc2)nn3-c2ccccc2)cc1 [Compound 9c] equals 4.23

The recorded pIC50 for entry COc1ccc(-c2nn(-c3ccccc3)c3nccc(-c4ccc(Br)cc4)c23)cc1 [Compound 9f] equals 4.45

* * *

Recorded IC50 values for a group of compounds are listed next.
# Test system: MCF7 cancer cell line
# METHOD_DESCRIPTION: MTT cytotoxicity assay, breast cancer MCF7
# Format: cell-based
# DETAILS: Homo sapiens, mean ± SD of three experiments
Your answer is read as µM, so omit the unit and give the number.

# COMPOUND, TEST_TARGET, QUANTITY_MEASURED, EXPERIMENTAL_RESULT
data = [
    ("COc1ccc(-c2nn(-c3ccccc3)c3nccc(-c4ccccc4)c23)cc1 [Compound 9a]", "MCF7 cancer cell line", "IC50", 6.39),
]

The recorded IC50 for entry COc1cccc2c1C(=O)c1c(O)c3c(c(O)c1C2=O)C[C@@](O)(C(=O)CO)C[C@@H]3O[C@H]1C[C@H](N)[C@H](O)[C@H](C)O1 [Doxorubicin, reference compound] equals 4.57

The recorded IC50 for entry COc1ccc(-c2nn(-c3ccccc3)c3nc(-c4ccccc4)c(C#N)c(-c4ccc(OC)c(OC)c4)c23)cc1 [Compound 14h] equals 38.1
